// provenance: patent US12528864

- experimental-system: T1, cynomolgus monkey CD96v2 expressed on cells (CHO cells; transiently transfected HEK cells) (cynomolgus monkey, UniProt A0A2K5TWV6 22-569)
- T1 construct: the cell is named under assay; also called CHO-cyCD96; Cyno CD96v2
- T1 sequence: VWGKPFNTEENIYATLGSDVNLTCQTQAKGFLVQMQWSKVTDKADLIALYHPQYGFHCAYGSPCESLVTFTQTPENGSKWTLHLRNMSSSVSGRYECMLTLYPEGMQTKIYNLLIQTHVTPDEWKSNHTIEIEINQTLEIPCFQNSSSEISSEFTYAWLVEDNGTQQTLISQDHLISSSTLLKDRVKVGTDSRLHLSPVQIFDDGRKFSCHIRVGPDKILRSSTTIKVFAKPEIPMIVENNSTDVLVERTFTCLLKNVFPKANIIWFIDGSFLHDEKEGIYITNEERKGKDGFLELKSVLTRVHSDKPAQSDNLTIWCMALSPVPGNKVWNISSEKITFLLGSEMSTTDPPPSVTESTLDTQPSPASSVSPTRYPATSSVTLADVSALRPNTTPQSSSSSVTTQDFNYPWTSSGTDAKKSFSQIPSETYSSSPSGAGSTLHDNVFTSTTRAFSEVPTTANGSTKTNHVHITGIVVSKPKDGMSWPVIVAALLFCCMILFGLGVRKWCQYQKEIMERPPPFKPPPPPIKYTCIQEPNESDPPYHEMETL
- experimental-details: flow cytometry on CHO cells expressing cynomolgus CD96v2
Items are presented alongside their recorded EC50.

binder	EC50
42Y073-1A01-126 (antibody, V domains shown, Fully human antibody) VH: QVQLVQSGAEVKKPGASVKVSCKASGYTFTRYNMHWVRQAPGQGLEWMGWINPAGGSTSYAQKFQGRVTMTRDTSTSTVYMELSSLRSEDTAVYYCARETAYYTTKGNWFDPWGQGTLVTVSA VL: DIQMTQSPSSLSASVGDRVTITCRASQSISSYLNWYQQKPGKAPKLLIYAASSLQSGVPSRFSGSGSGTDFTLTISSLQPEDFATYYCQQSLYPPRTFGGGTKVEIK	0.03 nM
42Y073-86F04-33 (antibody, V domains shown, Fully human antibody) VH: QVQLVQSGAEVKKPGSSVKVSCKASGGTFSSYAISWVRQAPGQGLEWMGGILPIFGRANYAQKFQGRVTITADESTSTAYMELSSLRSEDTAVYYCARLLGESGMDVWGQGTTVTVSS VL: DIQMTQSPSSLSASVGDRVTITCRASQSISSYLNWYQQKPGKAPKLLIYAASSLQSGVPSRFSGSGSGTDFTLTISSLQPEDFATYYCQQPYFSPPTFGGGTKVEIK	0.05 nM
42Y073-86F08-47 (antibody, V domains shown, Fully human antibody) VH: QVQLVQSGAEVKKPGSSVKVSCKASGGTFSQYAIHWVRQAPGQGLEWMGVIIPIFGKANYAQKFQGRVTITADESTSTAYMELSSLRSEDTAVYYCARGAGYYGDKDPMDVWGQGTTVTVSS VL: DIQLTQSPSSLSASVGDRVTITCRASQSISSYLNWYQQKPGKAPKLLIYAASSLQSGVPSRFSGSGSGTDFTLTISSLQPEDFATYYCQQVLHTITFGGGTKVEIK	0.06 nM
42Y073-1A01-97 (antibody, V domains shown, Fully human antibody) VH: QVQLVQSGAEVKKPGASVKVSCKASGYTFTRAAMHWVRQAPGQGLEWMGIINPAGGYTSYAQKFQGRVTMTRDTSTSTVYMELSSLRSEDTAVYYCARETAYYTTKGNWFDPWGQGTLVTVSS VL: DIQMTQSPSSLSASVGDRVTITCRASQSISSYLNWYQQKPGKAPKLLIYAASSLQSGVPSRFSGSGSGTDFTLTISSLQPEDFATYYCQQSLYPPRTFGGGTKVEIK	0.02 nM
42Y073-1A01-103 (antibody, V domains shown, Fully human antibody) VH: QVQLVQSGAEVKKPGASVKVSCKASGYTFTAYQMHWVRQAPGQGLEWMGIINPAGGWTSYAQKFQGRVTMTRDTSTSTVYMELSSLRSEDTAVYYCARETAYYTTKGNWFDPWGQGTLVTVSS VL: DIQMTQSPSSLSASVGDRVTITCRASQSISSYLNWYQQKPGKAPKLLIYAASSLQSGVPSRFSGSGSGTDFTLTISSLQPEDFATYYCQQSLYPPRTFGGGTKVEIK	0.03 nM
